Origin of measurements: BigSolDB 2.1

- Protocol conditions: in isopropanol, 304.04 K
Observable: solubility (mole fraction)

>  <Molecule smiles>
COc1cc(Cc2cnc(N)nc2N)cc(OC)c1OC

>  <Measurement>
0.000468

$$$$

---

- Protocol conditions: in THF, 292.65 K

>  <Molecule smiles>
COc1cc(Cc2cnc(N)nc2N)cc(OC)c1OC

>  <solubility (mole fraction)>
0.000987

$$$$

---

- Protocol conditions: in THF, 303.12 K
Observable: solubility (mole fraction)

>  <Molecule smiles>
COc1cc(Cc2cnc(N)nc2N)cc(OC)c1OC

>  <Measurement>
0.00137

$$$$

---

- Protocol conditions: in isopropanol, 324.04 K

>  <Molecule smiles>
COc1cc(Cc2cnc(N)nc2N)cc(OC)c1OC

>  <solubility (mole fraction)>
0.00151

$$$$

---

- Protocol conditions: in THF, 316.74 K
Observable: solubility (mole fraction)

>  <Molecule smiles>
COc1cc(Cc2cnc(N)nc2N)cc(OC)c1OC

>  <Observable>
solubility (mole fraction)

>  <Measurement>
0.00208

$$$$

---

- Protocol conditions: in methanol, 309.36 K
Observable: solubility (mole fraction)

>  <Molecule smiles>
COc1cc(Cc2cnc(N)nc2N)cc(OC)c1OC

>  <Measurement>
0.00265

$$$$

---

- Protocol conditions: in n-propanol, 323.48 K

>  <Molecule smiles>
COc1cc(Cc2cnc(N)nc2N)cc(OC)c1OC

>  <solubility (mole fraction)>
0.00231

$$$$

---

- Protocol conditions: in n-butanol, 276.35 K
Observable: solubility (mole fraction)

>  <Molecule smiles>
COc1cc(Cc2cnc(N)nc2N)cc(OC)c1OC

>  <Measurement>
0.000157

$$$$

---

- Protocol conditions: in ethanol, 315.24 K

>  <Molecule smiles>
COc1cc(Cc2cnc(N)nc2N)cc(OC)c1OC

>  <solubility (mole fraction)>
0.00151

$$$$

---

- Protocol conditions: in ethanol, 302.05 K

>  <Molecule smiles>
COc1cc(Cc2cnc(N)nc2N)cc(OC)c1OC

>  <solubility (mole fraction)>
0.000833

$$$$

---

- Protocol conditions: in sec-butanol, 328.66 K
Observable: solubility (mole fraction)

>  <Molecule smiles>
COc1cc(Cc2cnc(N)nc2N)cc(OC)c1OC

>  <Observable>
solubility (mole fraction)

>  <Measurement>
0.0029

$$$$

---

- Protocol conditions: in THF, 298.08 K

>  <Molecule smiles>
COc1cc(Cc2cnc(N)nc2N)cc(OC)c1OC

>  <solubility (mole fraction)>
0.00117

$$$$

---

- Protocol conditions: in acetone, 319.07 K

>  <Molecule smiles>
COc1cc(Cc2cnc(N)nc2N)cc(OC)c1OC

>  <solubility (mole fraction)>
0.00173

$$$$

---

- Protocol conditions: in sec-butanol, 283.66 K

>  <Molecule smiles>
COc1cc(Cc2cnc(N)nc2N)cc(OC)c1OC

>  <solubility (mole fraction)>
0.000179

$$$$

---

- Protocol conditions: in methanol, 328.15 K
Observable: solubility (mole fraction)

>  <Molecule smiles>
COc1cc(Cc2cnc(N)nc2N)cc(OC)c1OC

>  <Measurement>
0.00571

$$$$

---

- Protocol conditions: in isopropanol, 315.13 K
Observable: solubility (mole fraction)

>  <Molecule smiles>
COc1cc(Cc2cnc(N)nc2N)cc(OC)c1OC

>  <Measurement>
0.00091

$$$$
